Reference source for all entries: ChEMBL document CHEMBL4739716

- tested-on: Probable G-protein coupled receptor 139 (Homo sapiens)
- assay-overview: Agonist activity at human GPR139 expressed in CHO-K1 cells assessed as increase in calcium flux by calcium 5 dye based FLIPR assay relative to JNJ63533054
- Format: functional, cell-based
- applied-conditions: filed as agonist
# Emax per record follows
endpoint-name: Emax

- C[C@H](NC(=O)Cn1nc2ncc(F)cn2c1=O)c1ccc(OC(F)(F)F)cc1: > 80%
- COc1cccc2nn(CC(=O)N[C@@H](C)c3ccc(C)cc3)c(=O)n12: > 80%
- Cc1cc(Cl)ccc1[C@H](C)NC(=O)Cn1nc2ncccn2c1=O: > 80%
- C[C@H](NC(=O)[C@@H](C)n1nc2ncccn2c1=O)c1ccc(Cl)c(F)c1: > 80%
- O=C(Cn1nc2cccnn2c1=O)NC1(c2cccc(Cl)c2)CC1: 50%
- C[C@H](NC(=O)Cn1nc2c(OC3CN(C)C3)nccn2c1=O)c1ccc(Cl)c(F)c1: 50%
- C[C@H](NC(=O)Cn1nc2ncccn2c1=O)c1ccc(Cl)cc1: > 80%
- COc1nc2nn(CC(=O)N[C@@H](C)c3ccc(Cl)c(F)c3)c(=O)n2cc1C: > 80%
- Cc1ccc([C@H](C)NC(=O)Cn2nc3ccncn3c2=O)cc1: > 80%
- C[C@H](NC(=O)Cn1nc2ccccn2c1=O)c1ccc(Cl)c(Cl)c1: > 80%
- Cc1ccn2c(=O)n(CC(=O)N[C@@H](C)c3ccc(Cl)c(F)c3)nc2c1: > 80%
- C[C@H](NC(=O)Cn1nc2ccccn2c1=O)c1ccc(C(F)(F)F)cc1: > 80%
- COc1cccn2c(=O)n(CC(=O)N[C@@H](C)c3ccc(C)cc3)nc12: > 80%
- CNc1ccnn2c(=O)n(CC(=O)N[C@@H](C)c3ccc(OC(F)(F)F)cc3)nc12: > 80%
- C[C@H](NC(=O)Cn1nc2c(N3CCOCC3)cccn2c1=O)c1ccc(Cl)c(F)c1: > 80%
- Cc1ccc2nn(CC(=O)N[C@@H](C)c3ccc(OC(F)(F)F)cc3)c(=O)n2c1: > 80%
- Cc1ccc([C@H](C)NC(=O)Cn2nc3ccc(F)cn3c2=O)cc1F: > 80%
- C[C@H](NC(=O)Cn1nc2c(N3CCN(C)CC3)nccn2c1=O)c1ccc(Cl)c(F)c1: 50%
- Cc1ccc([C@H](C)NC(=O)Cn2nc3ccc(C)cn3c2=O)cc1: > 80%
- C[C@H](NC(=O)Cn1nc2cccc(N3CCNCC3)n2c1=O)c1ccc(OC(F)(F)F)cc1: > 80%
- Cc1cc([C@H](C)NC(=O)Cn2nc3ccccn3c2=O)ccc1Cl: > 80%
- C[C@H](NC(=O)Cn1nc2cccnn2c1=O)c1ccc(Cl)cc1: > 80%
- C[C@H](NC(=O)Cn1nc2ncccn2c1=O)c1ccc(OC(F)F)c(F)c1: > 80%
- COc1ccn2c(=O)n(CC(=O)N[C@@H](C)c3ccc(OC(F)(F)F)cc3)nc2c1: > 80%
- C[C@H](NC(=O)Cn1nc2cc(C3CC3)cnn2c1=O)c1ccc(Cl)c(F)c1: > 80%
- C[C@H](NC(=O)Cn1nc2ncccn2c1=O)c1ccc(OC(F)(F)F)cc1: > 80%
- C[C@H](NC(=O)Cn1nc2c(OC3CNC3)nccn2c1=O)c1ccc(Cl)c(F)c1: 50%
- Cc1ccc2nn(CC(=O)N[C@@H](C)c3ccc(Cl)cc3)c(=O)n2n1: > 80%
